// provenance: patent US6436939B2

pKi: −log10 of the molar value.
This section lists pKi readings for human histamine H3 receptor (Homo sapiens, UniProt Q9Y5N1).
Experimental Endpoint: pKi

Sample Smiles: CCN(CC)CCCOc1ccc(/C=C/c2nc3ccccc3o2)cc1
Experimental Endpoint: pKi
Quantitative Readout: 7.51

Sample Smiles: CCCN(CCC)CCCOc1ccc(-c2nc3ccccc3s2)cc1
Experimental Endpoint: pKi
Quantitative Readout: 6.76

Sample Smiles: CCN(CC)CCCCOc1ccc(/C=C/c2nc3ccccc3o2)cc1
Experimental Endpoint: pKi
Quantitative Readout: 7.32

Sample Smiles: CCCN(CCC)CCCCOc1c(C)cc(/C=C/c2nc3ccccc3s2)cc1C
Experimental Endpoint: pKi
Quantitative Readout: 6.00

Sample Smiles: C(=C\c1nc2ccccc2o1)/c1ccc(OCCCCN2CCCC2)cc1
Experimental Endpoint: pKi
Quantitative Readout: 7.77
